Ref: ChEMBL document CHEMBL1961873

target: Tyrosine-protein kinase SYK (Homo sapiens); settings: at 0.1 µM;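 further: reported percentages are mean inhibition values for SYK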
measured property: inhibition (%)
// return numeric value only (unit: %, not printed)

Here's what some known entries look like.
CC(C)COC(=O)c1ccc2c(c1)/C(=C/Nc1ccc(S(N)(=O)=O)cc1)C(=O)N2 ... 4.14
Cc1cccc2c1NC(=O)/C2=N\Nc1ccc(S(N)(=O)=O)cc1 ... 3.45

Fetch value of inhibition on Tyrosine-protein kinase SYK (Homo sapiens) for "NS(=O)(=O)c1ccc(N/N=C2\C(=O)Nc3ccc4ncccc4c32)cc1" .
-9.38

Using Tyrosine-protein kinase SYK (Homo sapiens) as the test system, report measured inhibition of "COc1cc(N2CCN(C(C)C)CC2)ccc1Nc1nc(Nc2ccc(F)cc2C(N)=O)c2cc[nH]c2n1" .
0.19

Print Tyrosine-protein kinase SYK (Homo sapiens) inhibition for "Nc1nc(-c2ccc(F)cc2)c(-c2ccc3ncccc3n2)s1" .
-1.32

Under Tyrosine-protein kinase SYK (Homo sapiens), report inhibition for "Fc1ccc(-c2nn3ccccc3c2-c2ccncc2)cc1"
2.26

Report value only: inhibition, Tyrosine-protein kinase SYK (Homo sapiens), "CCCN(CCS(C)(=O)=O)Cc1ccc(-c2ccc3ncnc(Nc4ccc(OCc5cccc(F)c5)c(Cl)c4)c3c2)o1"
-1.64
